# procedure_summary: Antiproliferative activity against human WI-26 AV4 cells assessed as reduction in cell viability measured after 24 hrs by MTT assay
# measurement_setup: WI-26 AV4, 24 h
Recorded IC50 by entry
parameter_measured: IC50 (µM)

>  <smiles_string>
NS(=O)(=O)c1cc2cc(Cl)ccc2oc1=O

>  <measure_unit>
µM

>  <experimental_result>
89.2

$$$$
>  <smiles_string>
NS(=O)(=O)c1cc2cc(Cl)cc(Cl)c2oc1=O

>  <measure_unit>
µM

>  <experimental_result>
74

$$$$
>  <smiles_string>
NS(=O)(=O)c1cc2cc(Br)ccc2oc1=O

>  <measure_unit>
µM

>  <experimental_result>
76.6

$$$$
>  <smiles_string>
NS(=O)(=O)c1cc2c(ccc3ccccc32)oc1=O

>  <measure_unit>
µM

>  <experimental_result>
41.7

$$$$

---

# target: Carbonic anhydrase 9 (Homo sapiens)
Ki vs 50 nM: less than gives 1; not less than gives -1.

>  <smiles_string>
NS(=O)(=O)c1cc2c(ccc3ccccc32)oc1=O

>  <answer_label>
-1

$$$$
>  <smiles_string>
NS(=O)(=O)c1cc2ccccc2oc1=O

>  <answer_label>
-1

$$$$
>  <smiles_string>
NS(=O)(=O)c1cc2cc(F)ccc2oc1=O

>  <answer_label>
1

$$$$
>  <smiles_string>
NS(=O)(=O)c1cc2cc(Br)ccc2oc1=O

>  <answer_label>
-1

$$$$
>  <smiles_string>
NS(=O)(=O)c1cc2cc(Cl)cc(Cl)c2oc1=O

>  <answer_label>
-1

$$$$
>  <smiles_string>
NS(=O)(=O)c1cc2cccc(F)c2oc1=O

>  <answer_label>
1

$$$$

---

Catalogue of compounds with associated pKi
# target: UniProt Q16790
pKi: −log10 of the molar value.

>  <smiles_string>
NS(=O)(=O)c1cc2cc(Cl)ccc2oc1=O

>  <pKi>
6.75

$$$$
>  <smiles_string>
NS(=O)(=O)c1cc2cccc(O)c2oc1=O

>  <pKi>
7.01

$$$$
>  <smiles_string>
COc1cccc2cc(S(N)(=O)=O)c(=O)oc12

>  <pKi>
7.06

$$$$
>  <smiles_string>
NS(=O)(=O)c1cc2cc(O)ccc2oc1=O

>  <pKi>
7.18

$$$$
>  <smiles_string>
COc1cccc2oc(=O)c(S(N)(=O)=O)cc12

>  <pKi>
5.53

$$$$

---

In this section we review reported Activity values for a set of compounds.
# Test system: hTERT-BJ
# procedure_summary: Cytotoxicity against human TERT-Bj-5ta cells assessed as reduction in cell viability at 300 uM measured after 24 hrs under CoCl2- induced hypoxic condition by MTT assay relative to control
# Format: cell-based

>  <smiles_string>
NS(=O)(=O)c1cc2cc(O)ccc2oc1=O

>  <Activity [%]>
65.75

$$$$
>  <smiles_string>
CCOc1cccc2cc(S(N)(=O)=O)c(=O)oc12

>  <Activity [%]>
55.97

$$$$
>  <smiles_string>
COc1ccc2oc(=O)c(S(N)(=O)=O)cc2c1

>  <Activity [%]>
70.97

$$$$
>  <smiles_string>
NS(=O)(=O)c1cc2cccc(O)c2oc1=O

>  <Activity [%]>
54.76

$$$$

Data origin, for the record: ChEMBL document CHEMBL4825703
